// provenance: PubChem BioAssay (NCI)

Could you please report measured TGI for the items listed next?
tested on: MOLT-4 leukemia; test: NCI tumour cell line growth inhibition, 48 h

The recorded TGI for entry CC(=O)NNc1nc(C)c(C(/C=C/c2ccc(Cl)cc2)=N\N=C(N)N)s1 equals > 100 µM

Record summary for Cc1ccc(S(=O)(=O)OCC(=O)Nc2ccc(C(=O)O)c(O)c2)cc1 : reported TGI = 87.9 µM

The reported TGI of the compound O=C1CC(C(=O)O)Cc2c(Br)ccc(O)c21 (stereo unspecified) was > 100 µM

Sample COc1ccc(Cc2cc(OC)c(OC)c(OC)c2)cc1 ; TGI observed: 23.9 µM

The measured TGI associated with CN1C(=O)N/C(=C\c2ccc(S(=O)(=O)N/N=C/c3ccccc3)cc2)C1=O reads 83.7 µM

The reported TGI of the compound CN1CN(c2ccccc2)C2(CCN(C3Nc4ccccc4O3)CC2)C1=O (stereo unspecified) was 92.2 µM

Sample COc1ccc(-c2[nH]c(-c3ccc(OC)cc3)c(-c3ccccn3)c2-c2ccccn2)cc1 ; TGI observed: > 100 µM

Noted for CCCCCCc1cc2cc(C(=O)NCc3ccccc3)c(=N)oc2cc1O : its TGI reads > 100 µM

Given item COC(C)(C)[C@@H]1CCCN1C1=C(C)C(=O)OC1 , the value recorded as its TGI is > 100 µM

What the record says about Cc1ccc(NC(=O)CCc2nnc3s/c(=C\c4cccc([N+](=O)[O-])c4)c(=O)n23)cc1 : TGI is > 100 µM

Form: compound = CCN(CC)CCCC(C)Nc1c2ccc(Cl)cc2nc2cc(Cl)ccc12 (stereo unspecified) ; TGI = 5.31 µM

For COc1ccc(C(OC(=O)[C@H](O[Si](C)(C)C(C)(C)C)[C@@H](NC(=O)c2ccccc2)c2ccccc2)c2ccc(OC)cc2)cc1 the compound record lists TGI as > 100 µM

The recorded TGI for entry COC(O)C(=O)c1c2c(cc3c1CCC3)CCC2 (stereo unspecified) equals > 100 µM

So, Cc1n[nH]c(=O)n1Nc1ccccc1 ? Its TGI was > 100 µM

Quick note, TGI for CN(C)c1ccc(/C=C(\C#N)c2ccccc2)cc1 landed at > 100 µM

Lab note: measured TGI of CCC1=C[C@@H]2CN(C1)Cc1c([nH]c3ccccc13)[C@@](C(=O)OC)(c1cc3c(cc1OC)N(C)[C@H]1[C@@](O)(C(=O)OC)[C@H](OC(C)=O)[C@]4(CC)C=CCN5CC[C@]31[C@@H]54)C2 was 3.5 µM

Looking up C1=Nc2ccccc2Cn2nncc21 , I see its TGI listed as > 100 µM

Per the record, Clc1cc2nc(C3CCCCO3)[nH]c2cc1Cl (stereo unspecified) has TGI of > 100 µM

Entry under test: Cc1ccc(C(=O)O)c(/C=C2\Cc3cc(C)cc(C)c3C2=O)c1 . Its TGI was > 100 µM

Briefly, TGI measured for OC(c1ccccc1)C1CC2C=CC1C2 (stereo unspecified) : > 100 µM

Entry N#CCCN(C1=NN(C(=O)CC(=O)Nc2ccc(Cl)cc2)C(c2ccccc2)C1)c1ccc(Cl)cc1 (stereo unspecified) — recorded TGI = > 100 µM

###

test system: RPMI-8226 leukemia; assay: NCI tumour cell line growth inhibition, 48 h
metric: TGI

response.value for O=C(CC(=O)N1N=C(n2ccc3ccccc32)CC1c1ccccc1)Nc1ccc(Cl)cc1 (stereo unspecified) (field: TGI) = > 100 µM

TGI reported for this compound CC12CC/C(=N/NC(N)=O)C3C1CCCC32 : > 100 µM

Briefly, TGI measured for CN1CCN(Cc2ccc(NC(=O)c3cncc(C#Cc4c(N)ncc5c(F)cccc45)c3)cc2C(F)(F)F)CC1 : 2.37 µM

Value of TGI reported for the compound O=C(Nc1ccc(Oc2ccc(NC(=O)Nc3ccccc3Cl)cc2)cc1)Nc1ccccc1Cl is 15.7 µM

So for Cn1nc(-c2ccccc2)c2c(/C=C/c3ccc(Cl)cc3)onc2c1=O , the logged TGI turned out to be > 100 µM

Please fill in: TGI reported for O=C(CN(Cc1ccccc1)Cc1ccccc1)N1CCc2c([nH]c3ccccc23)C1c1cccnc1 (stereo unspecified) = 4.53 µM

Query NC(=O)c1cc(I)ccc1NC(=O)/C=C/c1ccccc1Cl yields TGI of 4.66 µM

The recorded TGI for CCOc1cc(/C=N/c2nc3cc4sc(/N=C/c5ccc(O)c(OCC)c5)nc4cc3s2)ccc1O is > 100 µM

Looking up NC1=NCC(CN2CCCCC2)O1 (stereo unspecified) , I found its TGI recorded as > 100 µM

response.value for CN1C(=O)/C(=C2\S/C(=N\c3nnc(-c4ccccc4)o3)NC2=O)c2ccccc21 (field: TGI) = > 100 µM

Sample O=C1C(Cl)=C(N2CCN(CCOCCO)CC2)C(=O)c2ccccc21 ; TGI observed: > 26.9 µM

Memo: O=S(=O)(Nc1nccs1)c1ccc([As](=O)(O)O)cc1 , reported TGI: > 100 µM

Lab book: TGI of N#CC(C(=O)CCC(=O)Nc1ccc(Cl)cc1)c1ccc(Cl)cc1 (stereo unspecified) noted as > 100 µM

# TGI (compound: CC(=O)Nc1c2sscc-2n(C)c1=O ) is 4.48 µM

So, O=C(CCc1ccc(O)c(O)c1)NCCc1ccccc1 ? Its TGI was > 76.1 µM

// sample CC(=O)OC1CC2C(C)(C)CCC[C@]2(C)C2=C1C(O)=C(C(C)C)C(=O)C2=O (stereo partly specified) , its TGI was 4.08 µM

Recorded TGI (compound COc1ccc(N=N/C(=N\NC(=O)c2cc(Br)ccc2O)c2ccc(N(CCC#N)CCC#N)cc2OC)cc1 ): > 150 µg/mL

Data point: COc1ccc(/C=C2\C[C@H]3[C@@H]4CC=C5C[C@@H](OC(C)=O)CC[C@]5(C)[C@H]4CC[C@]3(C)C2=O)cc1OC ; TGI = > 100 µM

The reported value for O=C(COc1cccc(/C=C2\COc3ccccc3C2=O)c1)c1ccccc1 in terms of TGI is 4.85 µM

Form field TGI, entry CC(=O)n1nnc2ccc([N+](=O)[O-])cc21 : > 100 µM

Record COC(=O)CN=C1NC(=S)N(Cc2ccc(OC)cc2)C12CCCC2 , field TGI: > 100 µM

###

Kindly supply the reported TGI values for the records listed here.
test system: SK-MEL-28 melanoma; experiment: NCI tumour cell line growth inhibition, 48 h

// field: TGI; key: CC(O)CC(=O)CO[C@H]1[C@H](O)[C@@H](O)[C@@H](O)[C@@H]2NC(=O)c3c(cc4c(c3O)OCO4)[C@H]21 (some centres not stated) ; value = 8.03 µM

Measured TGI of Cc1cc(N(CCC#N)CCC#N)ccc1/C=C1N=C(/C=C/c2ccccc2)N(c2ccc(S(N)(=O)=O)cc2)C\1=O : > 100 µM

GET /value?item= CCCCOC(=O)/C=C\C(=O)NC(N)=O &field=TGI returns 42.5 µM

Value of measured TGI for the entry O=C(c1cc(Cl)cc(Cl)c1)N(Cc1cccnc1)C(=S)N(Cc1cccnc1)C(=O)c1cc(Cl)cc(Cl)c1 : > 100 µM

TGI for CC(=O)c1cc2c(s1)C(=O)c1ccsc1C2=O is 0.361 µM

Kindly note the recorded TGI for N#Cc1sc2c(c1OC(=O)c1ccc(Cl)cc1)c(=O)n(-c1ccccc1)c(=S)n2-c1ccccc1 , which is 47.2 µM

// COc1ccc(N2C(=O)C(=O)N(C)C2=O)c2ccccc12 : TGI value = > 10 µM

TGI for COc1cc(N2CCN(C(C)C)CC2)ccc1Nc1nc(Nc2ccc(F)cc2C(=O)NCC(O)CO)c2cc[nH]c2n1 (configuration not stated) is > 25 µM

TGI reading for N.N.N.N.N.N#Cc1nn[n-]n1.[Cl-].[Co+3] : > 100 µM

Lab book: TGI of O=[N+]([O-])c1ccc(Cc2nc3cc4ccccc4cc3[nH]2)cc1C(F)(F)F noted as > 100 µM

// sample C=C[C@]1(C)CC(=O)C(C(C)C=O)[C@]12C(=O)Oc1cccc(C)c1C2=O (some centres not stated) , its TGI was 29.2 µM

Data point: CCCCCCCCCC(=O)NCCc1c[nH]c2ccc(OC)cc12 ; TGI = 33.1 µM

Record COc1cccc(N2C(=O)/C(=C/c3ccc(N(CCC#N)CCC#N)cc3)N=C2c2cc([N+](=O)[O-])ccc2Cl)c1 . Reported TGI: > 100 µM

TGI for Cc1ccccc1C=NC12CC3CC(CC(C3)C1)C2 is > 100 µM

Kindly note the recorded TGI for OCC1C2CCC3(OCCO3)C12 (configuration not stated) , which is > 100 µM

So, CC(C)C1CC(CO)(CNc2nc(N)nc(Cl)c2/C=N\O)C1 (configuration not stated) ? Its TGI was 26.1 µM

// recorded TGI for N#CC(NNC(=O)c1c(Cl)c(Cl)c(Cl)c(Cl)c1-c1nc2ccc(C(=O)c3ccccc3)cc2[nH]1)c1ccccc1 (configuration not stated) : > 100 µM

Record summary for CCCCCCc1cc2cc(C(=O)NCc3ccccc3)c(=N)oc2cc1O : reported TGI = > 100 µM

Reported TGI ( O=[N+]([O-])c1ccc(NNN=Nc2ccc(-c3nc4ccccc4[nH]3)cc2)c([N+](=O)[O-])c1 ) = > 100 µM

Consider Cc1ccc(C(=O)C(c2nc3n(c2O)C(=N)N=N3)c2nc3n(c2O)C(=N)N=N3)cc1 (configuration not stated) . Its measured TGI is > 100 µM

The reported TGI of the compound O=c1sc(Nc2ccc3ccccc3c2Cl)nc2ccccc12 was > 100 µM

Short answer for O=C(NC1CCN(Cc2ccccc2)CC1)c1cccc(I)c1 : TGI was 37.4 µM

Short answer for CC12CCCC(C#N)(C1)OC2=O (configuration not stated) : TGI was > 100 µM

response.value for O=C1CC(C(=O)O)Cc2c(Br)ccc(O)c21 (configuration not stated) (field: TGI) = > 100 µM

Quick note, TGI for COc1ccc2nc3cc([N+](=O)[O-])ccc3c(NNc3ccc([N+](=O)[O-])cc3)c2c1 landed at > 100 µM

The recorded TGI for entry CN(C)c1ccc(/C=C(\C#N)c2ccccc2)cc1 equals > 100 µM

Form field TGI, entry CN1C(=O)N/C(=C\c2ccc(S(=O)(=O)N/N=C/c3ccccc3)cc2)C1=O : > 100 µM

Reported TGI ( Cc1cncc(-c2nc(NCCc3c[nH]c4ccccc34)c3ncn(C(C)C)c3n2)c1 ) = 6.66 µM

For this compound ( C[C@]12CCCN1CC1=NNC(=O)c3cc(F)cc4[nH]c2c1c34 ), measured TGI is 87.2 µM

Nc1c(C(=O)c2ccc(C#CCN3CCOCC3)cc2)cnn1-c1ccc(F)cc1 has a reported TGI of > 25 µM

TGI in this record for O=C(O)CCC(=O)Oc1ccc(O)c2c1CCCC2=O : > 100 µM

So for O=S(=O)(Nc1nccs1)c1ccc([As](=O)(O)O)cc1 , the logged TGI turned out to be > 100 µM

Field TGI (entry [N-]=[N+]=NCCCn1c2c(c3ccc([N+](=O)[O-])cc3c1=O)C(=O)c1cc(I)ccc1-2 ) reads > 100 µM

The reported TGI of the compound O=c1c2cccc(F)c2sc2c(NCCCNCCO)nc3ccccc3c12 was 3.31 µM

Per the records, this compound ( CCOC(=O)C1=C(C)NC(C)=C(C(=O)OCCNC(=O)c2ccc(N=[N+]=[N-])cc2)C1c1ccccc1C(F)(F)F (configuration not stated) ) has TGI equal to 21.5 µM

Data point: O=C(NCCCl)NCCN1c2nc3ccccc3cc2Sc2cc3ccccc3nc21 ; TGI = 8.53 µM

Looking up Cc1ccc(/C=C(/C#N)n2nnc3ncccc32)cc1 , I found its TGI recorded as 31.3 µM

The recorded TGI for O=C(CCc1ccc(O)c(O)c1)NCCc1ccccc1 is > 100 µM

The recorded TGI for entry COC(=O)CNC(=O)CNC(=O)CSc1nnc(COc2ccc(Cl)cc2)n1-c1ccccc1 equals 56.3 µM

The compound identified as COc1ccc(NC(=S)C#N)cc1 registered its TGI at > 100 µM

Lookup result for CC1(c2nc3ccccc3[nH]2)CCC(C#N)C(C)(C)O1 (configuration not stated) ; measured TGI: > 100 µM

Per the record, CCc1cccc(C)c1N1C(=O)C(=O)C(c2nc3ccccc3o2)/C(=N/NC(=S)NN)C1=O (configuration not stated) has TGI of > 100 µM
